- system-name: T1, full-length human IL-36R on cells (human, UniProt Q9HB29 20-575)
- T1 sequence (looked up): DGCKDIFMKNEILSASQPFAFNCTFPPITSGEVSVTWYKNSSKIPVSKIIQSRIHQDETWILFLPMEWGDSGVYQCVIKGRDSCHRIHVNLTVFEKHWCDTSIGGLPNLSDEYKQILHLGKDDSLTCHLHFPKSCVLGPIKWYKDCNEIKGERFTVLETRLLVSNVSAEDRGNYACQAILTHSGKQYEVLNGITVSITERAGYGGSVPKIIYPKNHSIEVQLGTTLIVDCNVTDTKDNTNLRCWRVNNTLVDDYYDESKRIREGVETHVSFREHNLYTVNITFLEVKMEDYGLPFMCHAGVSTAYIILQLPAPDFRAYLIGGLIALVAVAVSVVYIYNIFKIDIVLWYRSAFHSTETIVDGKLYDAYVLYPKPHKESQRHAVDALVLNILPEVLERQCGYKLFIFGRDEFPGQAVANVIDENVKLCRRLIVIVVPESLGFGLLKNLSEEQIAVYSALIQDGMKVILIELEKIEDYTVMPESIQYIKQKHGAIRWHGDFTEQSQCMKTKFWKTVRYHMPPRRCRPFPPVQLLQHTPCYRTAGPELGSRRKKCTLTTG
- test-details: cell-based or functional assay
Below, each of the binders is paired with its reported Max Inhibition (%), NFκB-luciferase, 20 pM hIL-36α value.
Your answer is read as %, so omit the unit and give the number.

{"binder": "H4H14757P (antibody, human IgG4 S228P, kappa, V domains shown) VH: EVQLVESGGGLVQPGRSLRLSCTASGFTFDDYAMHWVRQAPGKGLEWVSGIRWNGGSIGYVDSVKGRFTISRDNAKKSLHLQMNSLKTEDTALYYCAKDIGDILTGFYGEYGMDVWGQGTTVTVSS VL: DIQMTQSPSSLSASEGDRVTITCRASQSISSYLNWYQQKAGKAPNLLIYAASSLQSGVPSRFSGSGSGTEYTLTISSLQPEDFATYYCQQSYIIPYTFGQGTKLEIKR", "unit-annotation": "%", "numeric-result": 101}

Complete the entry with Max Inhibition (%), NFκB-luciferase, 20 pM hIL-36α for H4H14699P2 (antibody, human IgG4 S228P, kappa, V domains shown, Fully human anti-IL-36R antibody) VH: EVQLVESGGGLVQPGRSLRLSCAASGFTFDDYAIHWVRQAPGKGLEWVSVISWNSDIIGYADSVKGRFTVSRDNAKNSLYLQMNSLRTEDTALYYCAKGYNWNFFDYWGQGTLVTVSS VL: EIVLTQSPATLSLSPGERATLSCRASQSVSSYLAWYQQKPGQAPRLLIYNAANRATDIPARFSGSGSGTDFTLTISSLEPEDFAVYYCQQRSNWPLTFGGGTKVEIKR
100

Return Max Inhibition (%), NFκB-luciferase, 20 pM hIL-36α (reported value) for this binder: H4H14758P (antibody, human IgG4 S228P, kappa, V domains shown) VH: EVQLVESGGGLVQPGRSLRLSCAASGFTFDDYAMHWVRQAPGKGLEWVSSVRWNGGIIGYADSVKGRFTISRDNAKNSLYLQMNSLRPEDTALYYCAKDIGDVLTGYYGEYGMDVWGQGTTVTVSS VL: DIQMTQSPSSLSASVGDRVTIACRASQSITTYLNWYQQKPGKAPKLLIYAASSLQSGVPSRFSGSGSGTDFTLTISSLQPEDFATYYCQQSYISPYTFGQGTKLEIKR
100

Please indicate Max Inhibition (%), NFκB-luciferase, 20 pM hIL-36α recorded for H4H14731P (antibody, human IgG4 S228P, kappa, V domains shown) VH: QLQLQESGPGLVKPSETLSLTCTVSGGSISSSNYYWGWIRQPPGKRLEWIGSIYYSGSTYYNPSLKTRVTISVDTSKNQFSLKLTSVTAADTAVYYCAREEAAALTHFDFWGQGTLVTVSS VL: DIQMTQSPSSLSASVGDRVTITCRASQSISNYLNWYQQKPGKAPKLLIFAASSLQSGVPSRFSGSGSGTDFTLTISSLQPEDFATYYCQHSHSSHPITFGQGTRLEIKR
99

Give me measured Max Inhibition (%), NFκB-luciferase, 20 pM hIL-36α, please, for this binder: H4H14706P2 (antibody, human IgG4 S228P, kappa, V domains shown) VH: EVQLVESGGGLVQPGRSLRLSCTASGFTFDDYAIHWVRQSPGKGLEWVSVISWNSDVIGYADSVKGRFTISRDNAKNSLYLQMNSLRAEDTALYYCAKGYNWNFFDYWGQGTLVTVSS VL: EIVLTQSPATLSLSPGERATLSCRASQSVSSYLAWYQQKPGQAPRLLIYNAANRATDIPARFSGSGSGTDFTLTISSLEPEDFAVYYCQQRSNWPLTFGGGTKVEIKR
101
